EXPERIMENTAL TARGET: cynomolgus monkey (cyno) TIGIT protein (cynomolgus monkey, UniProt A0A7N9I9V4 89-209)
Sequence (A0A7N9I9V4 entry or part of it): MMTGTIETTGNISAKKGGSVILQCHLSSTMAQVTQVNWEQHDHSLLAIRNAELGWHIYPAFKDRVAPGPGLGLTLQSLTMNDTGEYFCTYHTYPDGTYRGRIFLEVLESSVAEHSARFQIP
ASSAY EXPLANATION: SPR, captured mAb
Hi! Just check whether Kd is below 1000 pM. Below gives criterion met, equal or above gives criterion not met.

h7E7.L1H5 (antibody, V domains shown, VH: L69I (printed L691) against h7E7.L1H1; FR/HVR pieces) VH: EVQLVQSGAEVKKPGASVKVSCKASGYTFTEYSIYWVRQAPGQRLEIIGRIDPKNGRTYYVDKFKNRATITADTSASTAYMELSSLRSEDTAVYFCTRIYGFYFDFWGQGTLVTVSS VL: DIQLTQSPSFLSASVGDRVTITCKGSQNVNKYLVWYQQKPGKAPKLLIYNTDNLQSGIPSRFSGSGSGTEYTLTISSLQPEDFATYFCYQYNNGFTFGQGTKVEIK :: criterion met
h15C8.L3H1 (antibody, V domains shown, VL: Y71F against h15C8.L1H1; FR/HVR pieces) VH: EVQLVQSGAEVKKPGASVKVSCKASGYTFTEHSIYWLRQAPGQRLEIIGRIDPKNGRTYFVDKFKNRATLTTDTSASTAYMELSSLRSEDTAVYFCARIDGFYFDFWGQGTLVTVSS VL: DIQLTQSPSFLSASVGDRVTITCKGSQNVNKYLVWYQQKPGKAPKLLIYSTDNLQSGIPSRFSGSGSGTEFTLTISSLQPEDFATYFCYQYNNGFTFGQGTKVEIK :: criterion not met
h7E7.L1H6 (antibody, V domains shown, VH: A71R against h7E7.L1H1; FR/HVR pieces) VH: EVQLVQSGAEVKKPGASVKVSCKASGYTFTEYSIYWVRQAPGQRLEIIGRIDPKNGRTYYVDKFKNRATLTRDTSASTAYMELSSLRSEDTAVYFCTRIYGFYFDFWGQGTLVTVSS VL: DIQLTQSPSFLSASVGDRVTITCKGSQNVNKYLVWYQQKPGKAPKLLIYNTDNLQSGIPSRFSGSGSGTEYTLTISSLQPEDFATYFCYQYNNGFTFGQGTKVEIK :: criterion met
h7E7.L1H3 (antibody, V domains shown, VH: I48M against h7E7.L1H1; FR/HVR pieces) VH: EVQLVQSGAEVKKPGASVKVSCKASGYTFTEYSIYWVRQAPGQRLEIMGRIDPKNGRTYYVDKFKNRATLTADTSASTAYMELSSLRSEDTAVYFCTRIYGFYFDFWGQGTLVTVSS VL: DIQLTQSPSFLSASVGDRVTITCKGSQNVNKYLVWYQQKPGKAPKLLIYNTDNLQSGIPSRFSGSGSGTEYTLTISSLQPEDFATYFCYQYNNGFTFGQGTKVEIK :: criterion met
h15C8.L1H4 (antibody, V domains shown, VH: I48M against h15C8.L1H1; FR/HVR pieces) VH: EVQLVQSGAEVKKPGASVKVSCKASGYTFTEHSIYWLRQAPGQRLEIMGRIDPKNGRTYFVDKFKNRATLTTDTSASTAYMELSSLRSEDTAVYFCARIDGFYFDFWGQGTLVTVSS VL: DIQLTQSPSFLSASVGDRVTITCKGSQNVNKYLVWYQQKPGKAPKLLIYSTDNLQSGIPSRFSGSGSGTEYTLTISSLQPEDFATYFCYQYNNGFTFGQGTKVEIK :: criterion not met
h10A5.L1H1 (antibody, V domains shown, Humanized; FR/HVR pieces in order; also called h1.10A5.L1H1) VH: EVTLKESGPALVKPTQTLTLTCTFSGFSLTTYGMGVSWIRQPPGKALEWLASIWWNGNTYYNPSLRSRLTVTKDTSKNQAVLTMTNMDPVDTATYYCAHTGGAVITWFAYWGQGTLVTVSS VL: EIVMTQSPATLSVSPGERATLSCKASQSVGKNIAWYQQKPGQSPRLLIYYASNRYTGVPARFSGSGSGTEFTLTISSLQSEDFAVYYCQHIYNSPYPFGQGTKVEIK :: criterion met

Asked: Is Kd strictly under 1000 pM for the entry h15C8.L1H7 (antibody, V domains shown, VH: T71R against h15C8.L1H1; FR/HVR pieces) VH: EVQLVQSGAEVKKPGASVKVSCKASGYTFTEHSIYWLRQAPGQRLEIIGRIDPKNGRTYFVDKFKNRATLTRDTSASTAYMELSSLRSEDTAVYFCARIDGFYFDFWGQGTLVTVSS VL: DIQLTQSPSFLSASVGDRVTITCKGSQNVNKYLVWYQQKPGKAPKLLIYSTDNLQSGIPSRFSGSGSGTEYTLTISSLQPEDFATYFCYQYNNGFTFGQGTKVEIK ?
Given back: criterion met

Asked: Is Kd strictly under 1000 pM for the entry h15C8.L4H1 (antibody, V domains shown, VL: F87Y against h15C8.L1H1; FR/HVR pieces) VH: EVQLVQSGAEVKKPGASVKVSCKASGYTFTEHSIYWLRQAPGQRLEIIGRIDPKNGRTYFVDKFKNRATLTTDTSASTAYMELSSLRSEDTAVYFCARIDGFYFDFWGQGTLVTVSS VL: DIQLTQSPSFLSASVGDRVTITCKGSQNVNKYLVWYQQKPGKAPKLLIYSTDNLQSGIPSRFSGSGSGTEYTLTISSLQPEDFATYYCYQYNNGFTFGQGTKVEIK ?
Given back: criterion not met
